Could you please mark 1 for values of melting point below 100 °C and -1 for values at or above it?

Input: Lab log: compare recorded melting point with 100 °C; is it strictly lower for C=CC1=C(C(=O)O)N2C(=O)C(NC(=O)C(=NOCC(=O)O)c3csc(N)n3)C2SC1 (centres undefined) ?
Output: -1

Input: Try this compound next: C=C(C)C(C)=O
Output: 1

Input: Try this compound next: c1ccc2c(Oc3cccc4ccccc34)cccc2c1
Output: -1

Input: Try this compound next: CC(=O)N1N=C(c2ccc3ccccc3c2)C[C@@H]1c1ccc(Cl)c(Cl)c1
Output: -1

Input: Try this compound next: NC(=O)C(F)(F)C(F)(F)C(F)(F)C(F)(F)C(F)(F)C(F)(F)F
Output: -1

Input: Try this compound next: O=C(CS)Nc1ccc2ccccc2c1
Output: -1

Input: Try this compound next: CC(O)Cn1cnc2c1c(=O)n(C)c(=O)n2C (centres undefined)
Output: -1

Input: Try this compound next: CC1Cc2ccccc2CC1C (centres undefined)
Output: 1

Input: Try this compound next: COc1ccccc1/N=N/c1c(N)nn2c(C(F)(F)F)cc(=O)[nH]c12
Output: -1

Input: Try this compound next: Cc1cc(C(F)(F)F)n2nc(N)c(/N=N/c3cccc4ccccc34)c2n1
Output: -1

Input: Try this compound next: Cc1cc(C)c(C(=O)O)cc1C
Output: -1

Input: Try this compound next: Cc1ccc(NC(=O)C(F)(F)C(F)(F)C(F)(F)C(F)(F)C(F)(F)C(F)(F)C(F)(F)C(F)(F)F)c(C)c1
Output: 1

Input: Try this compound next: N#Cc1c[nH]nc1N
Output: -1

Input: Try this compound next: O=[N+]([O-])c1ccc(-c2nnc3n2NC(c2ccco2)S3)cc1 (centres undefined)
Output: -1

Input: Try this compound next: O=C(C(Cl)(Cl)Cl)C(Cl)(Cl)Cl
Output: 1

Input: Try this compound next: C=CCNC(=S)NNC(=O)C(=O)c1c[nH]c2ccccc12
Output: -1

Input: Try this compound next: CC(=O)Nc1ccc(C#Cc2ccc(NC(C)=O)cc2)cc1
Output: -1

Input: Try this compound next: CC1CCC(O)CC1=CC=C1CCCC2(C)C1CCC2C(C)C=CC(C)C(C)C (centres undefined)
Output: -1

Input: Try this compound next: Cc1cc(N)n(C)n1
Output: 1

Input: Try this compound next: O=C(CBr)c1ccc(Cl)c(Cl)c1
Output: 1

Input: Try this compound next: CCOC(=O)CCCCCCC(=O)OCC
Output: 1

Input: Try this compound next: Clc1cc(Cl)c(I)cc1Cl
Output: -1

Input: Try this compound next: COc1ccc(CN)c(F)c1F
Output: 1

Input: Try this compound next: O=C(Nc1ncc([N+](=O)[O-])s1)c1cccs1
Output: -1

Input: Try this compound next: CCCCCCCCCCCCCCC(C)C
Output: 1

Input: Try this compound next: CC(=O)Oc1nc(C2CCCCC2)nn1-c1ccccc1
Output: -1

Input: Try this compound next: OCc1cc(C(F)(F)F)ccc1Br
Output: 1

Input: Try this compound next: CC12CC(=CO)C(=O)CC1CCC1C2CCC2(C)C1CCC2(C)O (centres undefined)
Output: -1

Input: Try this compound next: Nc1cccc(-c2ccsc2)c1
Output: 1

Input: Try this compound next: CC(C)(C(=O)O)C(C)(C)C(=O)O
Output: -1

Input: Try this compound next: CCCCCCCOc1ccc(C(=O)O)cc1
Output: -1

Input: Try this compound next: CC(=O)OC1CC[C@@]2(C)C(CC[C@@H]3[C@@H]2CC[C@@]2(C)[C@H]3CC[C@@]2(C#Cc2ccccc2)OC(C)=O)C1 (some centres undefined)
Output: -1

Input: Try this compound next: O=C(Nc1cc(C(F)(F)F)cc(C(F)(F)F)c1)c1cncc(Cl)n1
Output: -1
